// provenance: PubChem BioAssay

Reported composite z-score values for a set of compounds
Test: small-molecule binders of probe aInhba, primary screen, biochemical, small-molecule microarray, 635/667 nm fluorescence (AID 1148);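 further: score merges 667nm spot fluorescence with signal-to-noise for antibody binding to printed compounds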
Details: higher = more signal

Example entries and their recorded answers appear below.
[[record]]
compound = "O=C(NN=C1C[C@@H](O)[C@@H](O)[C@@H]2[C@@H]3C(=O)N(Cc4ccccc4)C(=O)[C@@H]3CC[C@H]12)OCc1ccccc1"
observed_measurement = 0.0406

[[record]]
compound = "O=C1CCCC=C1C(O)COCc1ccccc1 (stereo not drawn)"
observed_measurement = -0.238


Consider now this further compound.
Lookup result for CC(C)CON=C1C[C@@H](O)[C@@H](O)[C@@H]2[C@@H]3C(=O)N([C@@H](C)c4ccccc4)C(=O)[C@@H]3CC[C@@H]12 ; measured composite z-score: -0.0791
